Source of measurements: paper PMC9352680

testTarget: T1, PUF4 RNA-binding domain (Saccharomyces cerevisiae, UniProt P25339 537-888)
T1 sequence: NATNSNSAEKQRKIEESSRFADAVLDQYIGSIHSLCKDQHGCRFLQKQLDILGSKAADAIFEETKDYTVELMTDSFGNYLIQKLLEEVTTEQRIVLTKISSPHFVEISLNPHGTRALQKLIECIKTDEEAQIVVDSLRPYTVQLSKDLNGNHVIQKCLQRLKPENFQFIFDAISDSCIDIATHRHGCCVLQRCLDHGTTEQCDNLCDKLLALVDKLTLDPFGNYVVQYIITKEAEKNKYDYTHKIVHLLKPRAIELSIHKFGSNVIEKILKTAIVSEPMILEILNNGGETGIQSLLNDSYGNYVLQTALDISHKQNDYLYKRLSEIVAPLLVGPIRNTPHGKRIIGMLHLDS
assayInfo: Mg; RNA-MaP; 20 mM Na-HEPES pH 7.4, 30 mM KOAc, 0.75 mM MgCl2, 0.1% Tween-20, 5% glycerol, 0.1 mg/mL BSA, 2 mM DTT; 25 C; 0.0125-409.6 nM protein
details: tags: N-His6-TEV cleaved; C-SNAP kept, Cy3B-labelled; label: tethered on chip by stalled RNA polymerase
Field: label. Allowed values: 1 (yes) (Kd < 6 nM) or 0 (no) (Kd >= 6 nM).

binder="UCUCUUUGUAUUCUCUCUCUU (ssRNA) [Ic_S1_P4E.1_K4.1_C4.1_H4.1_A4.1_[A6T]_[T7C]_F4.1_[A9C]_T4.1]" answerlabel="0 (no)"
binder="Id_ii_S2_P4E.4_K4.3_C4.2_[C-2T]_[T-1C]_H4.3_A4.1_F4.1_T4.2_[G10T]_[T11A] (ssRNA) RNA: UUUGAUUAAUAUGAUAUCGUUCUUUCUUCACACUAUUAUAUUCUUUCUCGAUAUCAUAUUAAUCUUU" answerlabel="0 (no)"
binder="Id_ii_S2_P5E.4_K5.3_C5.2_[C-2G]_H5.3_A5.1_F5.1_T5.2_[T11A]_[A12C] (ssRNA) RNA: UUUGAUUAAUAUGAUAUCGUUCUUUCUGUACACUUAUUAACUUCUUUCUCGAUAUCAUAUUAAUCUUU" answerlabel="1 (yes)"
binder="UCUCUUUAUUUUAUUAUCUCUU (ssRNA) [Ib_S1_P5E.1_K5.1_C5.1_H5.1_[G2A]_[A4T]_A5.1_F5.1_T5.1]" answerlabel="0 (no)"
binder="Ic_S4_P4E.1_K4.1_C4.1_H4.1_A4.1_[T5G]_[A6T]_[T7A]_F4.1_[A9T]_T4.1 (ssRNA) RNA: UUUGACAACUGAUCGUUCUUUCUUGUAGUAUUUUCUUUCUCGAUCAGUUGUCUUU" answerlabel="0 (no)"
binder="ACAAACGAUAUAUUAUUACCACAAAC (ssRNA) [Id_ii_S3_P5E.3_K5.2_C5.2_[C-2G]_[T-1A]_H5.2_A5.1_F5.1_T5.2_[T11C]_[A12C]]" answerlabel="0 (no)"
binder="Ic_S4_P4E.1_K4.1_C4.1_H4.1_A4.1_[A6C]_F4.1_[T8C]_[A9T]_T4.1 (ssRNA) RNA: UUUGACAACUGAUCGUUCUUUCUUGUAUCUCUUUCUUUCUCGAUCAGUUGUCUUU" answerlabel="0 (no)"
binder="Ie_S4_P4E.1_K4.1_C4.1_H4.1_A4.1_F4.1_[+9TCTCT]_T4.1 (ssRNA) RNA: UUUGACAACUGAUCGUUCUUUCUUGUAUAUUAUCUCUUUCUUUCUCGAUCAGUUGUCUUU" answerlabel="1 (yes)"
binder="UCUCUUUGUAUUACUCUUUAUCUCUU (ssRNA) [Ie_S1_P5E.1_K5.1_C5.1_H5.1_A5.1_[+7CTCT]_F5.1_T5.1]" answerlabel="0 (no)"
binder="UCUCUUUGUAACGGCCUCUCUU (ssRNA) [Ic_S1_P5E.1_K5.1_C5.1_H5.1_A5.1_[T5A]_[T6C]_[A7G]_F5.1_[T8G]_[T9C]_[A10C]_T5.1]" answerlabel="0 (no)"
binder="Ic_S4_P4E.1_K4.1_C4.1_H4.1_A4.1_[T5C]_F4.1_[T8A]_[A9T]_T4.1 (ssRNA) RNA: UUUGACAACUGAUCGUUCUUUCUUGUACAUAUUUCUUUCUCGAUCAGUUGUCUUU" answerlabel="1 (yes)"
binder="UCUCUUUGUAUAUUCUCUCAUCUCUU (ssRNA) [Ie_S1_P4E.1_K4.1_C4.1_H4.1_A4.1_F4.1_[+8CTCTC]_T4.1]" answerlabel="1 (yes)"
